- Tested on: SK-OV-3 ovarian
- MEASUREMENT_NOTES: NCI-60 one-dose screen, 48 h (100 = growth as untreated, 0 = no growth, -100 = all killed)
- EXPERIMENTAL_CONTEXT: 10 µM unless noted
The panel holds about 83,000 compounds, 20% with a hit somewhere; the sample as a whole holds those more often.
Output YES for records whose growth is lower than 90%, NO for records at or above 90%.

Would you please look over these solved cases?
| COMPOUND | ASSIGNED_LABEL |
| --- | --- |
| c1ccc(C2Cc3ccccc3C2=NC2CCCCC2)cc1 (centres undefined) | NO |
| Oc1ccc(Nc2ccccc2)cc1 | NO |
| Cc1ccc2c(c1)c1nc3cc(C)c(C)cc3nc1n2CCN(C)C | YES |
| COc1ccc(-c2cc(/C=C/C(=O)c3ccc(N)cc3)[nH]n2)cc1 | YES |
| C=C(C)[C@@H]1CC[C@]2(C)[C@H](CC[C@@H]3[C@H]4[C@H]5OC[C@@]4(CCC5(C)C)CC[C@]32C)[C@@]1(C)CCCN | NO |
| O=C(O)/C(=C/c1ccc(O)cc1)c1ccccc1 | NO |

Hello, is growth of the following compound strictly smaller than 90%? C=C(C)[C@@H]1CC[C@]2(c3nnc(-c4ccncc4)o3)CC[C@]3(C)[C@H](CC[C@@H]4[C@@]5(C)CCC(=O)NC(C)(C)[C@@H]5CC[C@]43C)[C@@H]12 NO
